assay: Cmax in Swiss Webster mouse at 50 mg/kg, po administered as single dose via gavage by LC/MS analysis; format: ADME, organism-based; set-up: dose 50 mg/kg, route oral; conditions: in vivo
readout-type: Cmax (µM)

input-smiles: O=C(Nc1ccc(F)c(-c2nc3ncc(-c4cc(F)cc(F)c4)cc3[nH]2)c1)N1CCCC1
Cmax (µM): 4.8

input-smiles: O=C(Nc1ccc(F)c(-c2nc3ncc(-c4ccc(F)c(F)c4)cc3[nH]2)c1)N1CCCC1
Cmax (µM): 6.67

A = Cc1nc(C)c(C(=O)Nc2ccc(F)c(-c3nc4ncc(-c5ccccn5)cn4n3)c2)o1
B = O=C(Nc1ccc(F)c(-c2nc3ncc(-c4ccc(F)cc4)cc3[nH]2)c1)N1CCCC1
C = O=C(Nc1ccc(F)c(-c2nc3ncc(C(F)(F)F)cc3[nH]2)c1)N1CCCC1
D = O=C(Nc1ccc(F)c(-c2nc3ncc(-c4ccc(F)cc4F)cc3[nH]2)c1)N1CCCC1
Highest Cmax first, then in falling order down to the smallest. Form field (ranking): labels in requested order. A, D, B, C

###

assay: AUC in Swiss Webster mouse at 50 mg/kg, po administered as single dose via gavage by LC/MS analysis; assay type: ADME, organism-based; conditions: in vivo
readout-type: AUC (µM·h)

Here's what some known entries look like.
input-smiles: Cc1nc(C)c(C(=O)Nc2ccc(F)c(-c3nc4ncc(-c5ccccc5Cl)cn4n3)c2)o1
readout-type: AUC
unit-label: µM·h
assay-result: 667
//
input-smiles: O=C(Nc1ccc(F)c(-c2nc3ncc(-c4ccccc4F)cc3[nH]2)c1)N1CCCC1
readout-type: AUC
unit-label: µM·h
assay-result: 11.6
//
input-smiles: O=C(Nc1ccc(F)c(-c2nc3ncc(-c4cccnc4F)cc3[nH]2)c1)N1CCCC1
readout-type: AUC
unit-label: µM·h
assay-result: 73.5
//
input-smiles: O=C(Nc1ccc(F)c(-c2nc3ncc(-c4cc(F)ccc4F)cc3[nH]2)c1)N1CCCC1
readout-type: AUC
unit-label: µM·h
assay-result: 12.8
//
input-smiles: O=C(Nc1ccc(F)c(-c2nc3ncc(-c4ccc(F)cc4F)cc3[nH]2)c1)N1CCCC1
readout-type: AUC
unit-label: µM·h
assay-result: 35.7
//
input-smiles: O=C(Nc1ccc(F)c(-c2nc3ncc(-c4ccc(O)cc4)cc3[nH]2)c1)N1CCCC1
readout-type: AUC
unit-label: µM·h
assay-result: 0.328
//
input-smiles: O=C(Nc1ccc(F)c(-c2nc3cc(-c4ccccc4)cnc3[nH]2)c1)N1CCCC1
readout-type: AUC
unit-label: µM·h
assay-result: 20.7

I = O=C(Nc1ccc(F)c(-c2nc3ncc(-c4ccc(F)cc4)cc3[nH]2)c1)N1CCCC1
II = Cc1nc(C)c(C(=O)Nc2ccc(F)c(-c3nc4ncc(-c5ccccn5)cn4n3)c2)o1
// returns I or II , whichever has the lower AUC Label of pick, please. I

###

experiment: Volume of distribution at steady state in Swiss Webster mouse at […], iv administered as single dose by LC/MS analysis; assay type: ADME, organism-based; details: in vivo, read-out: Vdss
readout-type: Vd

input-smiles: Cc1nc(C)c(C(=O)Nc2ccc(F)c(-c3nc4ncc(-c5ccccc5Cl)cn4n3)c2)o1
Vd: 0.7 to 1.1 L/kg

Tell us which Vd value is on record for `O=C(Nc1ccc(F)c(-c2nc3ncc(-c4ccccn4)cn3n2)c1)N1CCC(F)(F)C1` 0.7 to 1.1 L/kg

###

assay: Ratio of drug level in brain to plasma in Swiss Webster mouse at 5 mg/kg, ip measured after 1 hr by LC/MS analysis; type: ADME, organism-based; conditions: Swiss Webster, brain/plasma, read-out: BPR
readout-type: Kp at 1 h

input-smiles: O=C(Nc1ccc(F)c(-c2nc3ncc(-c4ccccn4)cn3n2)c1)N1CCC(F)(F)C1
Kp at 1 h: 0.02

input-smiles: O=C(Nc1ccc(F)c(-c2nc3ncc(-c4ccc(F)c(F)c4)cc3[nH]2)c1)N1CCCC1
Kp at 1 h: 0.02

input-smiles: O=C(Nc1ccc(F)c(-c2nc3ncc(C(F)(F)F)cc3[nH]2)c1)N1CCCC1
Kp at 1 h: 0.08

input-smiles: Cc1nc(C)c(C(=O)Nc2ccc(F)c(-c3nc4ncc(-c5ccccc5Cl)cn4n3)c2)o1
Kp at 1 h: 0.23

a = O=C(Nc1ccc(F)c(-c2nc3ncc(-c4ccccc4F)cc3[nH]2)c1)N1CCCC1
b = O=C(Nc1ccc(F)c(-c2nc3ncc(-c4ccc(F)cc4F)cc3[nH]2)c1)N1CCCC1
c = Cc1nc(C)c(C(=O)Nc2ccc(F)c(-c3nc4ncc(-c5ccccn5)cn4n3)c2)o1
d = O=C(Nc1ccc(F)c(-c2nc3ncc(-c4ccc(F)cc4)cc3[nH]2)c1)N1CCCC1
Highest Kp at 1 h first, then in falling order down to the smallest. Form field (ranking): labels in requested order. c, d, a, b
(c: 0.12, d: 0.04, a: 0.02, b: 0.01)

###

assay: AUC in Swiss Webster mouse at 50 mg/kg, po administered as single dose via gavage by LC/MS analysis; format: ADME, organism-based; conditions: in vivo
readout-type: AUC (µM·h)

Here's what some known entries look like.
input-smiles: O=C(Nc1ccc(F)c(-c2nc3ncc(C(F)(F)F)cc3[nH]2)c1)N1CCCC1
readout-type: AUC
assay-result: 1.24

input-smiles: O=C(Nc1ccc(F)c(-c2nc3ncc(-c4cccc(F)c4)cc3[nH]2)c1)N1CCCC1
readout-type: AUC
assay-result: 35.8

input-smiles: O=C(Nc1ccc(F)c(-c2nc3ncc(-c4ccc(F)c(F)c4)cc3[nH]2)c1)N1CCCC1
readout-type: AUC
assay-result: 27.5

1 = O=C(Nc1ccc(F)c(-c2nc3ncc(-c4cc(F)cc(F)c4)cc3[nH]2)c1)N1CCCC1
2 = O=C(Nc1ccc(F)c(-c2nc3ncc(-c4cncc(F)c4)cc3[nH]2)c1)N1CCCC1
3 = O=C(Nc1ccc(F)c(-c2nc3ncc(-c4cccc(F)c4F)cc3[nH]2)c1)N1CCCC1
4 = O=C(Nc1ccc(F)c(-c2nc3ncc(-c4ccccn4)cn3n2)c1)N1CCC(F)(F)C1
Highest AUC first, then in falling order down to the smallest. Form field (ranking): labels in requested order. 4, 1, 3, 2

###

assay: Drug level in Swiss Webster mouse plasma at 5 mg/kg, ip measured after 1 hr by LC/MS analysis; format: ADME, organism-based
readout-type: concentration at 1 h (µM)
Give the value in µM but do not write µM after it.

Tell us which concentration at 1 h value is on record for `Cc1nc(C)c(C(=O)Nc2ccc(F)c(-c3nc4ncc(-c5ccccc5Cl)cn4n3)c2)o1` 8.8

###

test: Oral bioavailability in Swiss Webster mouse at 50 mg/kg administered as single dose via gavage by LC/MS analysis; format: ADME, organism-based; conditions: in vivo
readout-type: bioavailability (%)

input-smiles: O=C(Nc1ccc(F)c(-c2nc3ncc(-c4ccccn4)cn3n2)c1)N1CCC(F)(F)C1
unit-label: %
bioavailability: 70
--
input-smiles: Cc1nc(C)c(C(=O)Nc2ccc(F)c(-c3nc4ncc(-c5ccccc5Cl)cn4n3)c2)o1
unit-label: %
bioavailability: 70

###

test: Cmax in Swiss Webster mouse at 50 mg/kg, po administered as single dose via gavage by LC/MS analysis; format: ADME, organism-based; set-up: dose 50 mg/kg, route oral; conditions: in vivo
readout-type: Cmax (nM)

Here's what some known entries look like.
input-smiles: O=C(Nc1ccc(F)c(-c2nc3ncc(-c4cccc(F)c4F)cc3[nH]2)c1)N1CCCC1
readout-type: Cmax
assay-result: 1830

input-smiles: O=C(Nc1ccc(F)c(-c2nc3ncc(-c4cccnc4F)cc3[nH]2)c1)N1CCCC1
readout-type: Cmax
assay-result: 25600

input-smiles: Cc1nc(C)c(C(=O)Nc2ccc(F)c(-c3nc4ncc(-c5ccccc5Cl)cn4n3)c2)o1
readout-type: Cmax
assay-result: 39300

I = O=C(Nc1ccc(F)c(-c2nc3ncc(-c4cc(F)ccc4F)cc3[nH]2)c1)N1CCCC1
II = O=C(Nc1ccc(F)c(-c2nc3ncc(-c4cncc(F)c4)cc3[nH]2)c1)N1CCCC1
III = O=C(Nc1ccc(F)c(-c2nc3ncc(-c4cccc(F)c4)cc3[nH]2)c1)N1CCCC1
Arrange the 3 compounds by rising Cmax, starting with the smallest. Form field (ranking): labels in requested order. II, I, III
(II: 1070 nM, I: 2800 nM, III: 7000 nM)

###

assay: Cmax in Swiss Webster mouse at 50 mg/kg, po administered as single dose via gavage by LC/MS analysis; format: ADME, organism-based; set-up: dose 50 mg/kg, route oral; conditions: in vivo
readout-type: Cmax (nM)

input-smiles: O=C(Nc1ccc(F)c(-c2nc3ncc(-c4ccc(O)cc4)cc3[nH]2)c1)N1CCCC1
Cmax / nM: 130

A = O=C(Nc1ccc(F)c(-c2nc3ncc(-c4ccccc4F)cc3[nH]2)c1)N1CCCC1
B = O=C(Nc1ccc(F)c(-c2nc3ncc(-c4ccccn4)cn3n2)c1)N1CCC(F)(F)C1
// returns A or B , whichever has the lower Cmax Label of pick, please. A
(A: 2230 nM, B: 31100 nM)
